MEASURED TARGET: HLA-B*5301 (human)
PROTOCOL: competition vs 125I-labeled standard peptide, purified HLA
Response field label takes true when IC50 is strictly below 300 nM and false in all other cases.

- BINDER: "FPNQAQMRIL (10-mer analog of the HER2/neu peptide starting at position 706; same label as the 9-mer in r49) [Her2/neu.706.F1, 10-mer]"
  QUALITATIVE LABEL: "false"
- BINDER: "FPLTSIISAI (10-mer analog of the HER2/neu peptide starting at position 649) [Her2/neu.649.F1I10]"
  QUALITATIVE LABEL: "true"
- BINDER: "FPLTSIISAVI (11-mer analog of the HER2/neu peptide starting at position 649) [Her2/neu.649.F1I11]"
  QUALITATIVE LABEL: "true"
- BINDER: "FPYDGIPI (8-mer analog of the HER2/neu peptide starting at position 921) [Her2/neu.921.F1I8]"
  QUALITATIVE LABEL: "false"
- BINDER: "FPAEQRASPI (10-mer analog of the HER2/neu peptide starting at position 642) [Her2/neu.642.F1I10]"
  QUALITATIVE LABEL: "false"

Attention now shifts to the item below.
q: hey, is IC50 for FPLTSIISAV (10-mer analog of the HER2/neu peptide starting at position 649; same label as the 9-mer in r40) [Her2/neu.649.F1, 10-mer] lower than 300 nM or not?
a: false
